Every entry's value here was drawn from patent US6608082B1.

- Target: MCR-1 (Homo sapiens, UniProt Q01726)
- Construct: expressed in transfected cells; host or cells: HEK 293
- Sequence (Q01726 whole entry): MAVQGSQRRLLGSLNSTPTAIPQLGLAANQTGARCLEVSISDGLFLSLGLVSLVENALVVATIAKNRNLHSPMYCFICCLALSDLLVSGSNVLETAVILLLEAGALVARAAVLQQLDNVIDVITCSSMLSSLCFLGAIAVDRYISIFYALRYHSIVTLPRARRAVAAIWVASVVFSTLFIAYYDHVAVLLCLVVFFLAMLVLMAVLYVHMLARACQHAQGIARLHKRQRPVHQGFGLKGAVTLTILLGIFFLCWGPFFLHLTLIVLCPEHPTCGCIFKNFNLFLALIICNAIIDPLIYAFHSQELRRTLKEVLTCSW
- Test details: Melanocortin receptor binding assay, competition with 125I-HP 467, HEK 293 cells expressing hMCR-1
- Recorded conditions: TRG 2408 and TRG 2409 libraries; inhibition of 125I-HP 467 binding; read-out: MC-1 IC50
pIC50: −log10 of the molar value.
Endpoint: pIC50

Answered examples (2):
CCNc1ccc(C2C(CNC3CCCCC3)c3ccccc3CN2CCC(CN)NCCNC)cc1 (centres unmarked) ... 5.41
CCNc1ccc(C2C(CNC3CCCCC3)c3ccccc3CN2CCCC(CN)NCCN)cc1 (centres unmarked) ... 6.16

I. CCNc1ccc(C2C(CNC3CCCCC3)c3ccccc3CN2CCCCC(CN)NCCN)cc1 (mixture of isomers) [TRG 2408-7]
II. NCC(CCCCN1Cc2ccccc2C(CNC2CCCCC2)C1c1ccc(-c2ccccc2)cc1)NCCc1ccccc1 (centres unmarked) [TRG 2408-22]
III. CCNc1ccc(C2C(CNC3CCCCC3)c3ccccc3CN2CCC(N)CN)cc1 (centres unmarked)
Arrange the 3 entries by pIC50 so the values rise. Please reply with the labels ordered as requested. Many thanks.
III, II, I
(III: 5.00, II: 5.56, I: 5.89)

1. NCC(CCCCN1Cc2ccccc2C(CNC2CCCCC2)C1c1ccc(Cl)cc1Cl)NCCc1ccccc1 (centres unmarked)
2. NCC(CCN1Cc2ccccc2C(CNC2CCCCC2)C1c1ccc(-c2ccccc2)cc1)NCCc1ccccc1 (centres unmarked)
Smaller pIC50 value, 1 vs 2 ? Your choice should be expressed through its label.
2

A. NCCNC(CN)CCCN1Cc2ccccc2C(CNC2CCCCC2)C1c1ccc(-c2ccccc2)cc1 (centres unmarked)
B. CNC(CN)CCN1Cc2ccccc2C(CNC2CCCCC2)C1c1ccc(-c2ccccc2)cc1 (centres unmarked)
Rank A against B by their pIC50 values and give the higher one. Lab log: write the label of the selected item as the result.
A
(A: 5.75, B: 5.27)

----------
- Target: MCR-4 (Homo sapiens, UniProt P32245)
- Construct: expressed in transfected cells; host or cells: HEK 293
- Sequence (P32245 whole entry): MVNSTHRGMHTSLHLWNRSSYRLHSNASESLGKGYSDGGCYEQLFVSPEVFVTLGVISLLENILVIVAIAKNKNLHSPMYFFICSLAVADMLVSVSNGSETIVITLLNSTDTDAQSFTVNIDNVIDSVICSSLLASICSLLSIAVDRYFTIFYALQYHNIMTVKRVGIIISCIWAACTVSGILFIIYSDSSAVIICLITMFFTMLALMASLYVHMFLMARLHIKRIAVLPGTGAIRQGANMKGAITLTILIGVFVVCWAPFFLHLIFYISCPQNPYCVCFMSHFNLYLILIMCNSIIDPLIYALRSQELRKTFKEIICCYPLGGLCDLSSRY
- Test details: Melanocortin receptor binding assay, competition with 125I-HP 467, HEK 293 cells expressing hMCR-4
- Recorded conditions: inhibition of binding of 125I-HP 467, HEK 293 cells expressing MCR-4; TRG 2414 library; read-out: MC-4 IC50
Endpoint: IC50 (µM)

COc1cccc(CNCC2c3ccccc3CN(CCCCC(N)CN)C2c2ccc(Oc3ccccc3)cc2)c1 (stereo not shown) ... 5.26

P. COc1ccc(CNCC2c3ccccc3CN(CCCCC(N)CN)C2c2ccc(Oc3ccccc3)cc2)cc1 (stereo not shown)
Q. NCC(CCCCN1Cc2ccccc2C(CNCCc2cccc(Cl)c2)C1c1ccc(Oc2ccccc2)cc1)NCc1ccccc1 (stereo not shown)
Identify the entry with the smaller IC50: P or Q . Which one? Tell me its label.
P
(P: 4.21 µM, Q: 46 µM)

a. COc1ccccc1CCNCC1c2ccccc2CN(CCCCC(CN)NCc2ccccc2)C1c1ccc(Cl)cc1Cl (mixture of isomers)
b. CCCOc1ccc(C2C(CNCc3cccc(OC)c3)c3ccccc3CN2CCCCC(N)CN)cc1 (mixture of isomers)
c. CC(C)Cc1ccc(C(C)CNC(CN)CCCCN2Cc3ccccc3C(CNC3CCCCC3)C2c2cccc(Oc3ccccc3)c2)cc1 (stereo not shown)
Sort entries by IC50 from minimum to maximum value. Form entry: ranked labels (order as requested).
a, b, c
(a: 3.48 µM, b: 5.07 µM, c: 58.8 µM)

----------
- Target: MCR-1 (Homo sapiens)
- Construct: expressed in transfected cells; host or cells: HEK 293
- Test details: Melanocortin receptor binding assay, competition with 125I-HP 467, HEK 293 cells expressing hMCR-1
- Recorded conditions: competition with 125I-HP 467, HEK 293 cells expressing MCR-1; read-out: MC-1 IC50
Endpoint: IC50 (µM)

Illustrative cases are given below, each with its answer.
CCCCNc1ccc(C2C(CNCCc3ccccc3)c3ccccc3CN2CCCCC(CN)NCCc2ccc(Br)cc2)cc1 (centres unmarked) ... 0.45
NC[C@@H](N)CCCN1Cc2ccccc2C(CNCCc2ccccc2)C1c1ccc(-c2ccccc2)cc1 (some centres unmarked) ... 0.5
CNC(CNC(CN)CCCN1Cc2ccccc2C(CN)C1c1ccc(-c2ccccc2)cc1)Cc1ccccc1 (centres unmarked) ... 1.22
CCNc1ccc(C2C(CN)c3ccccc3CN2CCCCC(CN)NCCC2CCCCC2)cc1 (centres unmarked) ... 0.16
NCC(CCCCN1Cc2ccccc2C(CNCCc2ccccc2)C1c1ccc(-c2ccccc2)cc1)NCC1CCCCC1 (centres unmarked) ... 0.73

a. COCCNC(CN)CCCN1Cc2ccccc2C(CN)C1c1ccc(-c2ccccc2)cc1 (centres unmarked)
b. CCCCNc1ccc(C2C(CNC3CCCCC3)c3ccccc3CN2CCCCC(CN)NCc2ccccc2)cc1 (centres unmarked)
c. CNC(CNC(CN)CCCCN1Cc2ccccc2C(CNCCc2ccccc2)C1c1ccc(-c2ccccc2)cc1)Cc1ccccc1 (centres unmarked)
d. CCNc1ccc(C2C(CNCCc3ccccc3)c3ccccc3CN2CCCCC(CN)NCCc2ccc(Br)cc2)cc1 (mixture of isomers)
e. CCCCNc1ccc(C2C(CNCCc3ccccc3)c3ccccc3CN2CCCCC(CN)NCCC2CCCCC2)cc1 (centres unmarked)
List the 5 entries from lowest IC50 to highest IC50 value. Your task in answering is to list the labels in the requested order.
b, e, d, c, a
(b: 0.13 µM, e: 0.22 µM, d: 0.49 µM, c: 0.76 µM, a: 1.22 µM)

----------
- Target: MCR-4 (Homo sapiens)
- Construct: expressed in transfected cells; host or cells: HEK 293
- Test details: Melanocortin receptor binding assay, competition with 125I-HP 467, HEK 293 cells expressing hMCR-4
- Recorded conditions: inhibition of binding of 125I-HP 467, HEK 293 cells expressing MCR-4; read-out: MC-4 IC50
Item-by-item account of IC50
Dear colleague, please return just the value in µM, with no unit written.

CCOc1ccc(CCNCC2c3ccccc3CN(CCCCC(CN)NCc3ccc(Br)cc3)C2c2cc(C(F)(F)F)cc(C(F)(F)F)c2)cc1 (stereo not shown) ... 8.22
CCNc1ccc(C2C(CNCCc3ccccc3)c3ccccc3CN2CCCC(CN)NCCC2CCCCC2)cc1 (stereo not shown) ... 1.22
CCNc1ccc(C2C(CN)c3ccccc3CN2CCCC(CN)NCCCCN2CCCCC2)cc1 (stereo not shown) ... 2.51

Pending compound:
Provide only the value of recorded IC50 for CCNc1ccc(C2C(CN)c3ccccc3CN2CCCC(CN)NCCCCN(CC)CC)cc1 (stereo not shown)
10.1

----------
- Target: MCR-4 (Homo sapiens, UniProt P32245)
- Construct: expressed in transfected cells; host or cells: HEK 293
- Test details: Melanocortin receptor binding assay, competition with 125I-HP 467, HEK 293 cells expressing hMCR-4
- Recorded conditions: inhibition of binding of 125I-HP 467, HEK 293 cells expressing MCR-4; TRG 2414 library; read-out: MC-4 IC50
Endpoint: IC50 (µM)

Worked examples follow.
COc1cccc(CNCC2c3ccccc3CN(CCCCC(N)CN)C2c2cc(C(F)(F)F)cc(C(F)(F)F)c2)c1 (stereo not shown) ... 1.55
CCCOc1ccc(C2C(CNCCc3cccc(Cl)c3)c3ccccc3CN2CCCCC(CN)NCc2ccccc2)cc1 (stereo not shown) ... 6.08
NCC(N)CCCCN1Cc2ccccc2C(CNCc2ccccc2)C1c1cc(C(F)(F)F)cc(C(F)(F)F)c1 (stereo not shown) ... 0.64
NCC(CCCCN1Cc2ccccc2C(CNCc2ccccc2C(F)(F)F)C1c1cc(C(F)(F)F)cc(C(F)(F)F)c1)NCc1ccccc1 (stereo not shown) ... 42
CCCOc1ccc(C2C(CNCc3ccccc3OCC)c3ccccc3CN2CCCCC(N)CN)cc1 (mixture of isomers) ... 5.06

A. CCCOc1ccc(C2C(CNCc3ccccc3C(F)(F)F)c3ccccc3CN2CCCCC(N)CN)cc1 (stereo not shown)
B. CCOc1ccccc1CNCC1c2ccccc2CN(CCCCC(CN)NCc2ccccc2)C1c1ccc(Cl)cc1Cl (stereo not shown)
C. COc1ccc(CCNCC2c3ccccc3CN(CCCCC(N)CN)C2c2cc(C(F)(F)F)cc(C(F)(F)F)c2)cc1 (stereo not shown)
Endpoint returns the given molecules ordered by ascending IC50. Please write the labels in the order that was asked for.
C, B, A
(C: 0.26 µM, B: 4.56 µM, A: 11 µM)

I. COc1ccc(CNCC2c3ccccc3CN(CCCCC(CN)NCCc3ccccc3)C2c2cccc(Oc3ccccc3)c2)cc1 (stereo not shown)
II. COc1ccccc1CCNCC1c2ccccc2CN(CCCCC(CN)NCc2ccccc2)C1c1ccc(Oc2ccccc2)cc1 (stereo not shown)
# argmax over IC50 for candidates I and II Mark your selection by writing its label.
II

----------
- Target: MCR-4 (Homo sapiens)
- Construct: expressed in transfected cells; host or cells: HEK 293
- Test details: Melanocortin receptor binding assay, competition with 125I-HP 467, HEK 293 cells expressing hMCR-4
- Recorded conditions: inhibition of binding of 125I-HP 467, HEK 293 cells expressing MCR-4; read-out: MC-4 IC50
Endpoint: IC50 (nM)

1. CC(C)Oc1ccc(C2C(CO)c3ccccc3CN2CCCC(CN)NCCC2CCCCC2)cc1 (stereo not shown)
2. CCNC(CN)CCCCN1Cc2ccccc2C(CN)C1c1ccc(CC)cc1 (stereo not shown)
Compare IC50: is it lower for 1 or for 2 ? Record your answer as the label of the chosen record.
1
(1: 960 nM, 2: 2040 nM)
